Each recorded value in this set is attributed to patent US20260042763A1.

test target: human isoforms of GABAA (α3ß2γ2) receptors (Homo sapiens, UniProt P18507+P34903)
Construct: expressed in transfected cells
Sequence (P34903 29-492): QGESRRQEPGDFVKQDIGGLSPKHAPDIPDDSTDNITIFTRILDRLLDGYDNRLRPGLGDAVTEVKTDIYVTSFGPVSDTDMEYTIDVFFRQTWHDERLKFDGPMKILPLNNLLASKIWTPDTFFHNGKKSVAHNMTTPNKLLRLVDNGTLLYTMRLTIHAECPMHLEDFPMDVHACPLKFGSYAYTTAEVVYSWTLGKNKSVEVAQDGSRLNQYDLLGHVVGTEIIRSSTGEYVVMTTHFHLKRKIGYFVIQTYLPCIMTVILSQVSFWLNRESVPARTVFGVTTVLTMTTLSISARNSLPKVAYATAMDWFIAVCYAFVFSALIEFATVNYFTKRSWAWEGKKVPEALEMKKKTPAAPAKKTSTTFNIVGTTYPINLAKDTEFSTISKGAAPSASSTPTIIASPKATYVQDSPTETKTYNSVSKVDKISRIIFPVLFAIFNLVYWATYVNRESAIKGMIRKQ
Sequence (P47870 25-512 partner limits assumed): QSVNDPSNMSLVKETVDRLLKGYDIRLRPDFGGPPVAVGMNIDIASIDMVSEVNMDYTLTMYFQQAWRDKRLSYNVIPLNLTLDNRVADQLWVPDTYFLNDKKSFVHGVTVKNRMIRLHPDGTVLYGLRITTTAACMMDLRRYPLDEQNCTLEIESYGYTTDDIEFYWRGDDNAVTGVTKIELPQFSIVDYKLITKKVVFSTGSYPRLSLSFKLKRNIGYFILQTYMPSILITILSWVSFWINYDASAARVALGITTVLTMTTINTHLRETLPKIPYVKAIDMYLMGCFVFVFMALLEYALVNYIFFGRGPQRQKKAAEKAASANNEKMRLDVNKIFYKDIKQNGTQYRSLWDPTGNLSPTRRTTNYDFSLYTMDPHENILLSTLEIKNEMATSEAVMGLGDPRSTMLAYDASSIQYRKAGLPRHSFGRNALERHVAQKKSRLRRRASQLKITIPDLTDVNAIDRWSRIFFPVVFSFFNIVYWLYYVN
Sequence (P18507 40-475): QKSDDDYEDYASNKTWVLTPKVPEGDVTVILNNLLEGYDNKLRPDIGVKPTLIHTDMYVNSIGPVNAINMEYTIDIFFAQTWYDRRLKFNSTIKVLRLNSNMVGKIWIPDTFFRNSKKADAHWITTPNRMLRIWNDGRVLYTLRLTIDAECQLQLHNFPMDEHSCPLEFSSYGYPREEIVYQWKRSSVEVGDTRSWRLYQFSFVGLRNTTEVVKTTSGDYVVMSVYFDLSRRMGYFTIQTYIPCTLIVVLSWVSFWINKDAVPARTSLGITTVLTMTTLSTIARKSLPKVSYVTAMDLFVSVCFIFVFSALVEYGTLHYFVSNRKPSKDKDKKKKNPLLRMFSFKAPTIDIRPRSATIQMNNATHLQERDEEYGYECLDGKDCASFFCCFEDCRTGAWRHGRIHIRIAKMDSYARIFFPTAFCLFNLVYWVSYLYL
assay comment: Potentiation of GABA-evoked currents at GABAA (α3β2γ2) receptors, automated patch-clamp (QPatch), Example B1
Assay type: cell-based
condition description: Ltk cells expressing GABAA α3β2γ2; 2.0 μM GABA; whole-cell, holding potential −80 mV; read-out: EC50
pEC50: −log10 of the molar value.
value type: pEC50

{"compound": "O=C(O[C@@H]1O[C@H](C(=O)O)[C@@H](O)[C@H](O)[C@H]1O)c1cn2c(n1)CN=C(c1ccccc1F)c1cc(Cl)ccc1-2", "value type": "pEC50", "result": "> 7.30"}

Problem: Can you look up the measured pEC50 of CC(C)CC1N=C(c2ccccc2F)c2cc(Cl)ccc2-n2cc(C(=O)O)nc21 (centres unmarked) for me?
Solution: < 7.00

###

test target: human isoforms of GABAA (α3ß2γ2) receptors (Homo sapiens, UniProt P18507+P34903)
Construct: expressed in transfected cells
assay comment: Potentiation of GABA-evoked currents at GABAA (α3β2γ2) receptors, automated patch-clamp (QPatch), Example B1
Assay type: cell-based
pEC50: −log10 of the molar value.
value type: pEC50

Please review the entries below; each comes with its answer.
{"compound": "O=C(O)c1cn2c(n1)CN=C(c1cccc(F)c1)c1cc(Cl)ccc1-2", "value type": "pEC50", "result": "< 7.00"}
{"compound": "CNC(=O)c1cn2c(n1)CN=C(c1ccccc1F)c1cc(Cl)ccc1-2", "value type": "pEC50", "result": "> 7.30"}
{"compound": "O=C(O)c1cn2c(n1)CN=C(c1ccccc1Cl)c1cc(F)ccc1-2", "value type": "pEC50", "result": "> 7.30"}
{"compound": "O=C(O)c1cn2c(n1)CN=C(c1c(F)cccc1F)c1cc(Cl)ccc1-2", "value type": "pEC50", "result": "> 7.30"}
{"compound": "CC1N=C(c2ccccc2F)c2cc(Cl)ccc2-n2cc(C(=O)O)nc21 (racemic)", "value type": "pEC50", "result": "> 7.30"}
{"compound": "COc1cc2c(cc1Cl)C(c1ccccc1F)=NCc1nc(C(=O)O)cn1-2", "value type": "pEC50", "result": "> 7.30"}
{"compound": "COCCOCCOCCOCCOCCOCCOCCOCCNC(=O)c1cn2c(n1)CN=C(c1ccccc1F)c1cc(Cl)ccc1-2", "value type": "pEC50", "result": "< 7.00"}
{"compound": "NC(=O)C(NCc1ccccc1)c1cn2c(n1)CN=C(c1ccccc1F)c1cc(Cl)ccc1-2 (stereo not shown)", "value type": "pEC50", "result": "7.00 to 7.30"}

Then this compound:
Problem: Quick one: pEC50 for NCCNC(=O)c1cn2c(n1)CN=C(c1ccccc1F)c1cc(Cl)ccc1-2 ?
Solution: > 7.30

###

test target: human isoforms of GABAA (α3ß2γ2) receptors (Homo sapiens, UniProt P18507+P34903)
Construct: expressed in transfected cells
assay comment: Potentiation of GABA-evoked currents at GABAA (α3β2γ2) receptors, automated patch-clamp (QPatch), Example B1
Type: cell-based
condition description: Emax of potentiation; Ltk cells expressing GABAA α3β2γ2; 2.0 μM GABA; whole-cell, holding potential −80 mV; read-out: Max %
Experimental: The ability of compounds exemplified above to potentiate the effect of GABA on GABAA receptors (α3β2γ2) was determined using one or more of the methods described below. […] Modulatory effects of the compounds of this disclosure were investigated using cells stably transfected with GABA-activated channels of the GABAA (α3ß2γ2) subtype together with submaximal GABA concentrations. […] Inward currents were measured upon application of 2.0 μM GABA to patch-clamped cells for 4 s. […]
value type: Emax

{"molecule": "COc1cc2c(cc1Cl)C(c1ccccc1F)=NCc1nc(C(=O)O)cn1-2", "Emax": "> 100%"}
{"molecule": "O=C(O)c1cn2c(n1)CN=C(c1ccccc1Br)c1cc(Cl)ccc1-2", "Emax": "50 to 100%"}
{"molecule": "O=C(O)c1nc2n(c1CNC1CCCCC1)-c1ccc(Cl)cc1C(c1ccccc1F)=NC2", "Emax": "> 100%"}
{"molecule": "Cc1c(C(=O)O)nc2n1-c1ccc(Cl)cc1C(c1ccccc1F)=NC2", "Emax": "> 100%"}
{"molecule": "O=C(O)c1cn2c(n1)CN=C(c1ccccc1F)c1cccc(Cl)c1-2", "Emax": "< 50%"}
{"molecule": "O=C(O)c1nc2n(c1CN1CCCC1)-c1ccc(Cl)cc1C(c1ccccc1F)=NC2", "Emax": "50 to 100%"}

Problem: So what does the record say about Emax for O=C(O)c1cn2c(n1)CN=C(c1cccc(F)c1)c1cc(Cl)ccc1-2 ?
Solution: > 100%

Problem: Here is the next molecule: O=C(O)c1cn2c(n1)CN=C(c1ccccc1F)c1cc(Br)ccc1-2
Solution: > 100%

Problem: What about O=C(O)Cc1cn2c(n1)CN=C(c1ccccc1F)c1cc(Cl)ccc1-2 ?
Solution: > 100%

Problem: // query: CC1N=C(c2ccccc2F)c2cc(Cl)ccc2-n2cc(C(=O)O)nc21 (racemic)
Solution: > 100%

Problem: What do you have for O=C(O)c1nc2n(c1C1CC1)-c1ccc(Cl)cc1C(c1ccccc1F)=NC2 ?
Solution: > 100%

Problem: Repeat with CNC(=O)c1cn2c(n1)CN=C(c1ccccc1F)c1cc(Cl)ccc1-2
Solution: > 100%

Problem: Would you kindly repeat that for Nc1c(C(=O)O)nc2n1-c1ccc(Cl)cc1C(c1ccccc1F)=NC2 ?
Solution: > 100%

Problem: Consider next the molecule O=C(O)c1cn2c(n1)CN=C(c1cccc(F)c1F)c1cc(Cl)ccc1-2 in the same way.
Solution: > 100%

###

test target: human isoforms of GABAA (α3ß2γ2) receptors (Homo sapiens, UniProt P18507+P34903)
Construct: expressed in transfected cells
assay comment: Potentiation of GABA-evoked currents at GABAA (α3β2γ2) receptors, automated patch-clamp (QPatch), Example B1
Format: cell-based
condition description: Emax of potentiation; Ltk cells expressing GABAA α3β2γ2; 2.0 μM GABA; whole-cell, holding potential −80 mV; read-out: Max %
value type: Emax

Observe how each entry below is paired with its result.
{"molecule": "O=C(O)c1cn2c(n1)CN=C(c1ccccc1F)c1cc(C3CC3)ccc1-2", "result": "> 100%"}
{"molecule": "O=C(O)c1cn2c(n1)C(O)N=C(c1ccccc1F)c1cc(Cl)ccc1-2 (centres unmarked)", "result": "50 to 100%"}

Problem: Entry O=C(O)c1cn2c(n1)CN=C(c1ccccc1Cl)c1cc(Cl)ccc1-2 has what Emax?
Solution: > 100%

###

test target: human isoforms of GABAA (α3ß2γ2) receptors (Homo sapiens, UniProt P18507+P34903)
Construct: expressed in transfected cells
assay comment: Potentiation of GABA-evoked currents at GABAA (α3β2γ2) receptors, automated patch-clamp (QPatch), Example B1
Assay type: cell-based
pEC50: −log10 of the molar value.
value type: pEC50

Illustrative cases are given below, each with its answer.
{"compound": "O=C(O)c1nc2n(c1-c1ccccc1)-c1ccc(Cl)cc1C(c1ccccc1F)=NC2 [Compound 239]", "pEC50": "< 7.00"}
{"compound": "CS(=N)(=O)CCNC(=O)c1cn2c(n1)CN=C(c1ccccc1F)c1cc(Cl)ccc1-2 (stereo not shown) [Compound 208]", "pEC50": "> 7.30"}
{"compound": "O=C(O)c1cn2c(n1)CN=C(c1ccccc1F)c1cccc(Cl)c1-2 [Compound 224]", "pEC50": "< 7.00"}
{"compound": "O=C(O)c1cn2c(n1)CN=C(c1ccccc1F)c1cc(Cl)cc(F)c1-2 [Compound 203]", "pEC50": "7.00 to 7.30"}
{"compound": "O=C(O)c1nc2n(c1CN1CCC1)-c1ccc(Cl)cc1C(c1ccccc1F)=NC2 [Compound 243]", "pEC50": "< 7.00"}
{"compound": "O=C(O)c1nc2n(c1CN1CCCCC1)-c1ccc(Cl)cc1C(c1ccccc1F)=NC2 [Compound 246]", "pEC50": "< 7.00"}
{"compound": "Cc1ccc2c(c1)C(c1ccccc1F)=NCc1nc(C(=O)O)cn1-2 [Compound 226]", "pEC50": "> 7.30"}
{"compound": "C[N+](C)(C)Cc1cn2c(n1)CN=C(c1ccccc1F)c1cc(Cl)ccc1-2 [Compound 202]", "pEC50": "> 7.30"}
{"compound": "CN(C)C(=O)c1cn2c(n1)CN=C(c1ccccc1F)c1cc(Cl)ccc1-2 [Compound 241]", "pEC50": "> 7.30"}
{"compound": "O=C(O)c1cn2c(n1)CN=C(c1ccccc1F)c1cc(C3CC3)ccc1-2 [Compound 222]", "pEC50": "7.00 to 7.30"}

Now look at this one.
Problem: Please report the recorded pEC50 for Cc1c(C(=O)O)nc2n1-c1ccc(Cl)cc1C(c1ccccc1F)=NC2 [Compound 213] .
Solution: > 7.30
